measurement protocol: Single-dose pharmacokinetic study of pitavastatin calcium tablets
Assay type: in vivo, human (healthy Chinese volunteers)
measurement conditions: male, human, plasma, oral, 1 mg
experimental endpoint: AUC(0-t) (ng·h/mL)
Just the number please, in ng·h/mL, no unit attached.

Give the measured AUC(0-t) of O=C(O)C[C@H](O)C[C@H](O)/C=C/c1c(C2CC2)nc2ccccc2c1-c1ccc(F)cc1 [pitavastatin] .
176

* * *

measurement protocol: Single-dose pharmacokinetic study of pitavastatin calcium tablets
Assay type: in vivo, human (healthy Chinese volunteers)
measurement conditions: both, human, plasma, oral, 2 mg
experimental endpoint: AUC(0-inf) (ng·h/mL)
Just the number please, in ng·h/mL, no unit attached.

Give the measured AUC(0-inf) of O=C(O)C[C@H](O)C[C@H](O)/C=C/c1c(C2CC2)nc2ccccc2c1-c1ccc(F)cc1 .
321

* * *

measurement protocol: Single-dose pharmacokinetic study of pitavastatin calcium tablets
Type: in vivo, human (healthy Chinese volunteers)
measurement conditions: male, human, plasma, oral, 4 mg
experimental endpoint: Cmax
Put your answer as a value accompanied by its unit after it.

Give the measured Cmax of O=C(O)C[C@H](O)C[C@H](O)/C=C/c1c(C2CC2)nc2ccccc2c1-c1ccc(F)cc1 .
209 ng/mL

* * *

measurement protocol: Single-dose pharmacokinetic study of pitavastatin calcium tablets
Assay type: in vivo, human (healthy Chinese volunteers)
measurement conditions: both, human, plasma, oral, 1 mg
experimental endpoint: AUC(0-inf) (ng·h/mL)
Just the number please, in ng·h/mL, no unit attached.

Give the measured AUC(0-inf) of O=C(O)C[C@H](O)C[C@H](O)/C=C/c1c(C2CC2)nc2ccccc2c1-c1ccc(F)cc1 [pitavastatin] .
206

* * *

measurement protocol: Single-dose pharmacokinetic study of pitavastatin calcium tablets
Assay type: in vivo, human (healthy Chinese volunteers)
measurement conditions: male, human, plasma, oral, 4 mg
experimental endpoint: AUC(0-t) (ng·h/mL)
Just the number please, in ng·h/mL, no unit attached.

Give the measured AUC(0-t) of O=C(O)C[C@H](O)C[C@H](O)/C=C/c1c(C2CC2)nc2ccccc2c1-c1ccc(F)cc1 [pitavastatin] .
690

* * *

measurement protocol: Single-dose pharmacokinetic study of pitavastatin calcium tablets
Format: in vivo, human (healthy Chinese volunteers)
measurement conditions: female, human, plasma, oral, 2 mg
experimental endpoint: Vd (L)
Just the number please, in L, no unit attached.

Give the measured Vd of O=C(O)C[C@H](O)C[C@H](O)/C=C/c1c(C2CC2)nc2ccccc2c1-c1ccc(F)cc1 .
87.5

* * *

measurement protocol: Single-dose pharmacokinetic study of pitavastatin calcium tablets
Type: in vivo, human (healthy Chinese volunteers)
measurement conditions: both, human, plasma, po
experimental endpoint: Tmax

Give the measured Tmax of O=C(O)C[C@H](O)C[C@H](O)/C=C/c1c(C2CC2)nc2ccccc2c1-c1ccc(F)cc1 .
≤ 1 h
